Test system: HeLa
PROCEDURE_SUMMARY: HeLa toxicity: nuclei-count effect normalised to DMSO (DMSO = 0); higher = more features changed / larger toxic effect
MEASUREMENT_PARAMETERS: incubation time: 24h incubation; 29.9 µM
Where a name gives a salt, the structure may show the parent alone.
Assign Y to entries whose HeLa toxicity: nuclei-count effect normalised meets or exceeds 90%; assign N to the rest.

                                   compound  target_or_system  cat
0  CNS(=O)(=O)c1ccccc1Nc1nc(Nc2ccc(C3CCN(C)CC3)cc2OC)ncc1Cl              HeLa    Y
1  CCCCCCOC(=O)[C@]1(O)C[C@@H]2O[C@@]1(C)n1c3ccccc3c3c4c(c5c6ccccc6n2c5c31)C(=O)NC4              HeLa    N
2  O=C(Nc1ccc([N+](=O)[O-])cc1Cl)c1cc(Cl)ccc1O [Niclosamide]              HeLa    N
3  [O-][S+](c1ccccc1)c1ccc2nnnn2n1 (configuration not stated)              HeLa    Y
4  Cc1[nH]c(/C=C2\C(=O)Nc3ccc(S(=O)(=O)Cc4c(Cl)cccc4Cl)cc32)c(C)c1C(=O)N1CCC[C@@H]1CN1CCCC1              HeLa    Y
5  OCCN(CCO)c1nc(N2CCCCC2)c2nc(N(CCO)CCO)nc(N3CCCCC3)c2n1              HeLa    N
6  CC(C)c1ccc2c(c1)CC[C@H]1[C@](C)(CN)CCC[C@]21C [Leelamine hydrochloride]              HeLa    Y

----------
System: human spermatozoa;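 further: pooled live human sperm from at least 3 donors, tracked by automated microscopy in 0.5 s time-lapse movies, compounds at 10 and 30 µM, versus median of 16 DMSO wells per plate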
PROCEDURE_SUMMARY: progressively motile sperm, percent change vs DMSO (non-capacitating); higher = more of the measured sperm population than DMSO, for viability, fewer PI-positive (dead) cells than DMSO; extreme values may be limits of the assay
MEASUREMENT_PARAMETERS: incubation time: 10min incubation, 9.99 µM
Where a name gives a salt, the structure may show the parent alone.
// reported progressively motile sperm for each item listed
OBSERVATION_TYPE: progressively motile sperm (%)

>>> print(df.to_string())
                                   compound            observation_type  measured_number
0  Cc1[nH]c(/C=C2\C(=O)Nc3ccc(S(=O)(=O)Cc4c(Cl)cccc4Cl)cc32)c(C)c1C(=O)N1CCC[C@@H]1CN1CCCC1  progressively motile sperm             6.38
1  COc1ccc2nc([S@@+]([O-])Cc3ncc(C)c(OC)c3C)[nH]c2c1  progressively motile sperm             11.4
2  CC(C)c1ccc2c(c1)CC[C@H]1[C@](C)(CN)CCC[C@]21C [Leelamine hydrochloride]  progressively motile sperm             15.1
3  CCc1cc(Nc2nccc(-c3c(-c4ccc(OC)c(C(=O)Nc5c(F)cccc5F)c4)nc4ccccn34)n2)c(OC)cc1N1CCC(N2CCN(S(C)(=O)=O)CC2)CC1  progressively motile sperm             4.67
4  Nc1ccc(-c2ccc3ncc4ccc(=O)n(-c5cccc(C(F)(F)F)c5)c4c3c2)cn1  progressively motile sperm             38.8
5  Cn1c(=O)c2c(-c3ccccc3)n3c(c2n(C)c1=O)[C@H](c1ccc(Br)o1)Oc1ccc(C(=O)O)cc1-3  progressively motile sperm             4.77
6  Oc1c(Cl)cc(Cl)c(Cl)c1Cc1c(O)c(Cl)cc(Cl)c1Cl  progressively motile sperm            -23.5
